- Tested Target: CYP2C9 (Homo sapiens, UniProt P11712)
- Construct: with specific CYP probe substrates in human liver microsomes; from tissue; host or cells: human liver microsomes
- Sequence (P11712 whole entry): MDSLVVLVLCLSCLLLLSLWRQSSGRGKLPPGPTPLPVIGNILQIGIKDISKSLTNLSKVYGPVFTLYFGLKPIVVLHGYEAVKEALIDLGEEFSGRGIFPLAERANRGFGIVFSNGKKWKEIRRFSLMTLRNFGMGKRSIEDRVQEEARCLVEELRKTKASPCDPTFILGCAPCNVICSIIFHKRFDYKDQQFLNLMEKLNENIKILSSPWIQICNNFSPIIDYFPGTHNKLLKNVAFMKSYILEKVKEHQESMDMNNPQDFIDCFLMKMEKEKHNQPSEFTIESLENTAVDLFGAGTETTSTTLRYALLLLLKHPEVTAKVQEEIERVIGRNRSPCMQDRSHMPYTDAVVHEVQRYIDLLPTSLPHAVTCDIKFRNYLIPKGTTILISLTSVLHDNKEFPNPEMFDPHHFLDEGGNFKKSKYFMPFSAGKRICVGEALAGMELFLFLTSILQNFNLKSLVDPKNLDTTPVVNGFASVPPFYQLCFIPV
- Experiment Notes: CYP inhibition in human liver microsomes
- Type: in vitro ADME
- Condition Info: probe Diclofenac
pIC50: −log10 of the molar value.
Readout Name: pIC50

molecule="C=CC(=O)N[C@H]1CCC[C@H]1NC(=O)c1sc2nccc3c2c1NC(=O)N3c1cnc(CC(C)C)cc1C (atropisomer, axis not shown)" tested_target="CYP2C9 (Homo sapiens, UniProt P11712)" readout_name=pIC50 recorded_measurement=5.52

----------
- Experiment Notes: Phase 1 first-in-human study, plasma pharmacokinetics
- Type: in vivo
- Condition Info: male, human, plasma, po, 200 mg, single 200 mg oral solution, male fasted; read-out: t1/2, dom (converted)
Readout Name: half-life (h)

compound="C=CC(=O)N[C@H]1CCC[C@H]1NC(=O)c1sc2nccc3c2c1NC(=O)N3c1cnc(CC(C)C)cc1C (atropisomer, axis not shown)" units_text=h recorded_measurement=1.8
